target: wt human JAK1, catalytic site (Homo sapiens); construct: wt human JAK1, catalytic site; assay: HTRF KinEASE assay, JAK1; details: 2.5 μM ATP; read-out: IC50, Activity Toward JAK1
Sequence (P23458 875-1153 limits assumed): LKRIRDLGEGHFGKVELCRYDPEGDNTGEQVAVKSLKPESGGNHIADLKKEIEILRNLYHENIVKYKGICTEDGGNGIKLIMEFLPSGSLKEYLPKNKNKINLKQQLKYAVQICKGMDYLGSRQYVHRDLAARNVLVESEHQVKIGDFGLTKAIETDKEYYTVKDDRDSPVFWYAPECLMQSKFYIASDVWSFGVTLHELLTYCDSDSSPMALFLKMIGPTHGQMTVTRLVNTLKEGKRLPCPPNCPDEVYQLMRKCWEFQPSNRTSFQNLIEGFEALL
ASSAY_READOUT: IC50

Reference set (3 entries):
- TEST_SMILES: "COCCNC(=O)c1ccc(Nc2cn(-c3c(Cl)cccc3Cl)nc2C(N)=O)cc1"
  RECORDED_VALUE: "10 to 100 nM"
- TEST_SMILES: "NC(=O)c1nn(-c2c(Cl)cccc2Cl)nc1Nc1ccc(-c2nc(C(F)(F)F)cn2CCO)cc1"
  RECORDED_VALUE: "< 10 nM"
- TEST_SMILES: "CN1CCN(S(=O)(=O)c2ccc(Nc3cn(-c4c(Cl)cccc4Cl)nc3C(N)=O)cc2)CC1"
  RECORDED_VALUE: "10 to 100 nM"

# get_value(readout='IC50', item= CC(C)(C)NC(=O)c1ccc(Nc2cn(-c3c(F)cccc3Cl)nc2C(N)=O)cc1 )
100 to 1000 nM

Same thing, different molecule: Cn1ccc(Nc2cn(-c3c(Cl)cccc3Cl)nc2C(N)=O)cc1=O
100 to 1000 nM

Same thing, different molecule: COCCCNC(=O)c1ccc(Nc2cn(-c3c(Cl)cccc3Cl)nc2C(N)=O)cc1
100 to 1000 nM

Same thing, different molecule: NC(=O)c1nn(-c2c(Cl)cccc2Cl)cc1Nc1ccc(-c2ccnnc2)cc1
10 to 100 nM

Same thing, different molecule: N#CC1CN(C(=O)c2ccc(Nc3cn(-c4c(Cl)cccc4Cl)nc3C(N)=O)nc2)C1
10 to 100 nM

* * *

target: wt human TYK2, catalytic site (Homo sapiens); construct: wt human TYK2, catalytic site; assay: HTRF KinEASE assay, TYK2; settings: 1 μM ATP; read-out: IC50, Activity Toward TYK2
pIC50: −log10 of the molar value.
// reported pIC50 for each item listed

- TEST_SMILES: "NC(=O)c1nn(-c2c(Cl)cccc2Cl)cc1Nc1ccc(-c2nccn2CC(F)F)cc1"
  pIC50: "> 8.00"

# get_value(readout='pIC50', item= NC(=O)c1nn(-c2c(Cl)cccc2Cl)cc1Nc1ccc(C(=O)N2CC(F)(F)C(F)(F)C2)nc1 )
7.00 to 8.00

Same thing, different compound: NC(=O)c1nn(-c2c(Cl)cccc2Cl)cc1Nc1ccc(-c2nncn2CC(F)(F)F)cc1
7.00 to 8.00

Same thing, different compound: CC(C)(C)NC(=O)c1ccc(Nc2cn(-c3c(F)cccc3F)nc2C(N)=O)cc1
7.00 to 8.00

Same thing, different compound: CN1CCC(NC(=O)c2ccc(Nc3cn(-c4c(F)cccc4Cl)nc3C(N)=O)cc2)CC1
7.00 to 8.00

* * *

target: wt human TYK2, catalytic site (Homo sapiens, UniProt P29597); construct: wt human TYK2, catalytic site; assay: HTRF KinEASE assay, TYK2; settings: 1 μM ATP; read-out: IC50, Activity Toward TYK2
Sequence (P29597 897-1176 limits assumed): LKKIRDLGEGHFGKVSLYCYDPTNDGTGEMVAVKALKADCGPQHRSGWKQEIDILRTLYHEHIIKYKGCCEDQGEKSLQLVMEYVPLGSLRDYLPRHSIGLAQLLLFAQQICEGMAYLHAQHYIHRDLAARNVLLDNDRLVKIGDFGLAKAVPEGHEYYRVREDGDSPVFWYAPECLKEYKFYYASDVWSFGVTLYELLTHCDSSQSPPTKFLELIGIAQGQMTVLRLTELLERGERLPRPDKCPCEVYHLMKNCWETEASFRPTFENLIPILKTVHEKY
// reported IC50 for each item listed

- TEST_SMILES: "CC(C)n1ncnc1-c1ccc(Nc2cn(-c3c(Cl)cccc3Cl)nc2C(N)=O)cc1"
  IC50: "10 to 100 nM"
- TEST_SMILES: "NC(=O)c1nn(-c2c(Cl)cccc2Cl)cc1Nc1ccc(-c2nnc3n2CCCC3)cc1"
  IC50: "10 to 100 nM"
- TEST_SMILES: "COCCn1cc(C(F)(F)F)nc1-c1ccc(Nc2nn(-c3c(Cl)cccc3Cl)nc2C(N)=O)cc1"
  IC50: "100 to 1000 nM"
- TEST_SMILES: "NC(=O)c1nn(-c2c(Cl)cccc2Cl)cc1Nc1cnn(-c2ncccc2F)c1"
  IC50: "10 to 100 nM"
- TEST_SMILES: "NC(=O)c1nn(-c2c(Cl)cccc2Cl)cc1Nc1ccc(-c2nnc3cncc(Cl)n23)nc1"
  IC50: "10 to 100 nM"
- TEST_SMILES: "NC(=O)c1nn(-c2c(Cl)cccc2Cl)cc1Nc1ccccc1"
  IC50: "100 to 1000 nM"
- TEST_SMILES: "NC(=O)c1nn(-c2c(Cl)cccc2Cl)cc1Nc1ccc(-c2nnccc2C(F)(F)F)cc1"
  IC50: "10 to 100 nM"

// below: IC50 requested for another molecule
# get_value(readout='IC50', item= CC(C)n1cnnc1-c1ccc(Nc2cn(-c3c(Cl)cccc3Cl)nc2C(N)=O)cc1 )
10 to 100 nM

* * *

biological target: wt human LRRK2, catalytic site (Homo sapiens); construct: 5 nM wt human LRRK2, catalytic site; assay: TR-FRET LanthaScreen Eu Kinase Binding Assay, LRRK2 wt; settings: one range stated for wt and G2019, read-out: IC50, Activity Toward LRRK2(Wt)
Sequence (Q5S007 970-2527 limits assumed): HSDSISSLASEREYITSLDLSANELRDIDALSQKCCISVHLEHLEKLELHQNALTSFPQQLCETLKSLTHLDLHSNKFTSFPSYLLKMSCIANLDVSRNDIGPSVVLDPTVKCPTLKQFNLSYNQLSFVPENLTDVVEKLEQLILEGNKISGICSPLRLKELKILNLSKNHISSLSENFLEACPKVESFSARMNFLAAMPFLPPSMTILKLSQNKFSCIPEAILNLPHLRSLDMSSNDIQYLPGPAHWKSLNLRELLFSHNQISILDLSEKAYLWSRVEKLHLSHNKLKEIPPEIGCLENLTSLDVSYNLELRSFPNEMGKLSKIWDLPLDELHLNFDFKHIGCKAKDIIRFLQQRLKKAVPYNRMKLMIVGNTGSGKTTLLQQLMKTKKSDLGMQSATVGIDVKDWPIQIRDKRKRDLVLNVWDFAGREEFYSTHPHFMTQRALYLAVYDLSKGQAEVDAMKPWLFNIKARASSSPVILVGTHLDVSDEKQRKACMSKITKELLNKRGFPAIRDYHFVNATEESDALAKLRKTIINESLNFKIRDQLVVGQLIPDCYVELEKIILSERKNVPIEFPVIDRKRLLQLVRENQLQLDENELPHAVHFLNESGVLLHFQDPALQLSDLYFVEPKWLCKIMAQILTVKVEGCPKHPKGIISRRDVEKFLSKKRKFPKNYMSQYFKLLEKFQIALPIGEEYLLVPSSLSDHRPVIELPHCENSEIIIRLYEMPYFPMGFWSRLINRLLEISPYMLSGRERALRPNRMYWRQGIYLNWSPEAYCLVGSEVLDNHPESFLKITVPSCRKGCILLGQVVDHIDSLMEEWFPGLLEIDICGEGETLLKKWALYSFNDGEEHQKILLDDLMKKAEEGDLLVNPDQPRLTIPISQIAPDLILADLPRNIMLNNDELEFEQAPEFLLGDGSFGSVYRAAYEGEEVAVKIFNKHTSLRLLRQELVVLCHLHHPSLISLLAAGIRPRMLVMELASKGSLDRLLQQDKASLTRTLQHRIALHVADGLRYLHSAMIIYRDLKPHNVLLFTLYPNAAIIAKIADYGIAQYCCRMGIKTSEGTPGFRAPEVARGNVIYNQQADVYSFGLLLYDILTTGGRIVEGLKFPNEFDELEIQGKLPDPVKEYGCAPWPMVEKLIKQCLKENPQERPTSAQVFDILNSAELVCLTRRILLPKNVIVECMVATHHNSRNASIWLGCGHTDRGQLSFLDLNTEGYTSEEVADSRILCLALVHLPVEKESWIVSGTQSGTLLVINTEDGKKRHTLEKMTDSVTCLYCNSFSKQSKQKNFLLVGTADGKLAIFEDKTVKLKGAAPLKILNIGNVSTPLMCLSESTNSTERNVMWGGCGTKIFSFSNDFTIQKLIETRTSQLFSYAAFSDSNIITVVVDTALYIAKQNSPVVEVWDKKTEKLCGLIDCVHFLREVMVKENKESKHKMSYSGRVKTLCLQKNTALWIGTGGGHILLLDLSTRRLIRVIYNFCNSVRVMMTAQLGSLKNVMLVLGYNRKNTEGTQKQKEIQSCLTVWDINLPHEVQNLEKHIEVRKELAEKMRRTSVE
// reported IC50 for each item listed

- COMPOUND: "NC(=O)c1nn(-c2c(Cl)cccc2Cl)cc1Nc1ccc(C(=O)N2CCC(F)C2)cc1 (stereo not shown)"
  RECORDED_VALUE: "100 to 1000 nM"

What value of IC50 on wt human LRRK2, catalytic site (Homo sapiens) does CCn1ncnc1-c1ccc(Nc2cn(-c3c(Cl)cccc3Cl)nc2C(N)=O)cc1 have?
100 to 1000 nM

Same thing, different compound: Cc1cncnc1-c1ccc(Nc2cn(-c3c(Cl)cccc3Cl)nc2C(N)=O)cc1
100 to 1000 nM

Same thing, different compound: N#Cc1cn(C2COC2)c(-c2ccc(Nc3cn(-c4c(Cl)cccc4Cl)nc3C(N)=O)cc2)n1
100 to 1000 nM

Same thing, different compound: NC(=O)c1nn(-c2c(F)cccc2Cl)cc1Nc1ccc(-c2nnc3n2CCCC3)cc1
10 to 100 nM

Same thing, different compound: Cc1ccn(-c2ccc(Nc3cn(-c4c(F)cccc4Cl)nc3C(N)=O)cc2)n1
100 to 1000 nM

Same thing, different compound: CN1CCC(NS(=O)(=O)c2ccc(Nc3cn(-c4c(Cl)cccc4Cl)nc3C(N)=O)cc2)CC1
100 to 1000 nM

Same thing, different compound: CN1CCC(N(C)C(=O)c2ccc(Nc3cn(-c4c(Cl)cccc4Cl)nc3C(N)=O)cc2)CC1
100 to 1000 nM

Same thing, different compound: N#Cc1cccc(F)c1-n1cc(Nc2ccc(C(=O)N3CCOCC3)cc2)c(C(N)=O)n1
100 to 1000 nM

Same thing, different compound: NC(=O)c1nn(-c2c(Cl)cccc2Cl)cc1Nc1ccc(C(=O)N2CC[C@@H](N3CCCC3)C2)cc1
100 to 1000 nM

Same thing, different compound: NC(=O)c1nn(-c2c(F)cccc2F)cc1Nc1ccc(C(=O)NC2CCOCC2)cc1
100 to 1000 nM

Same thing, different compound: CC(C)n1cnnc1-c1ccc(Nc2nn(-c3c(Cl)cccc3Cl)nc2C(N)=O)cc1
100 to 1000 nM

Same thing, different compound: CN(C)C1CCN(C(=O)c2ccc(Nc3cn(-c4c(Cl)cccc4Cl)nc3C(N)=O)cc2)CC1
100 to 1000 nM

Same thing, different compound: Cc1ccnn1-c1ccc(Nc2cn(-c3c(Cl)cccc3Cl)nc2C(N)=O)cc1
100 to 1000 nM

Same thing, different compound: CN=S1(=O)CCN(C(=O)c2ccc(Nc3cn(-c4c(Cl)cccc4Cl)nc3C(N)=O)cc2)CC1
100 to 1000 nM

Same thing, different compound: NC(=O)c1nn(-c2c(F)cccc2Cl)cc1Nc1ccc(C(=O)N2CCCC2)cc1
100 to 1000 nM

* * *

// reported IC50 for each item listed
biological target: wt human TYK2, catalytic site (Homo sapiens); construct: wt human TYK2, catalytic site; assay: HTRF KinEASE assay, TYK2; details: 1 μM ATP; read-out: IC50, Activity Toward TYK2

Reference set (2 entries):
- COMPOUND: "N#Cc1cccnc1-c1ccc(Nc2cn(-c3c(Cl)cccc3Cl)nc2C(N)=O)cc1 [compound 59]"
  IC50: "100 to 1000 nM"
- COMPOUND: "CN1CCN(C(=O)c2ccc(Nc3cn(-c4c(Cl)cccc4Cl)nc3C(N)=O)nc2)CC1 [compound 370]"
  IC50: "10 to 100 nM"

What value of IC50 on wt human TYK2, catalytic site (Homo sapiens) does CN(C)C1CCN(C(=O)c2ccc(Nc3cn(-c4c(Cl)cccc4Cl)nc3C(N)=O)nc2)CC1 [compound 442] have?
100 to 1000 nM

Same thing, different compound: NC(=O)c1nn(-c2c(Cl)cccc2Cl)cc1Nc1ccc(C(=O)N2CCS(=O)(=O)CC2)nc1 [compound 463]
< 10 nM

Same thing, different compound: NC(=O)c1nn(-c2c(Cl)cccc2Cl)nc1Nc1ccc(C(=O)N2CCS(=O)(=O)CC2)cn1 [compound 160]
< 10 nM

Same thing, different compound: N#Cc1cccc(Cl)c1-n1nc(Nc2ccc(C(=O)N3CC[C@@H](F)C3)cc2)c(C(N)=O)n1 [compound 162]
< 10 nM

Same thing, different compound: NC(=O)c1nn(-c2c(F)ccc(F)c2Cl)nc1Nc1ccc(C(=O)N2CC[C@@H](F)C2)cc1 [compound 147]
10 to 100 nM

Same thing, different compound: CN(C)CCn1cnnc1-c1ccc(Nc2cn(-c3c(Cl)cccc3Cl)nc2C(N)=O)cc1 [compound 214]
< 10 nM
